Where do the numbers come from? From patent EP2236511A2.

Target: imidazoline receptor I2
Test: Radioligand binding to imidazoline receptor I2 ([3H] Idazoxan, rat brain membranes)
Conditions: hydrochloride
readout_type: pIC50
As a rule, pIC50 stands for the negative log10 of the concentration, concentration in M.

## Input pIC50 lookup needed for CN1CCc2c(c3ccccc3n2Cc2ccccc2)C1.Cl [1.9(1)·HCl] , thanks.
## Output 6.00

---

System: imidazoline receptor I2
Experiment: Radioligand binding to imidazoline receptor I2 ([3H] Idazoxan, rat brain membranes)
Conditions: 10 µM ligand
Counter-ions that a name gives are not always drawn.
readout_type: % inhibition (%)
Just the number please, in %, no unit attached.

## Input % inhibition lookup needed for Cc1ccc2c(c1)c1c(n2CCc2cccnc2)CCCN(C)C1 [1.2.2(3-2)·2HCl] , thanks.
## Output 63

## Input % inhibition lookup needed for Cc1ccc2c(c1)[C@@H]1CN(C)CCC[C@@H]1N2CCc1ccc(C)nc1 (relative stereo) [1.6.1(2)·3HCl] , thanks.
## Output 80

## Input % inhibition lookup needed for "Cc1ccc(CCn2c3c(c4cc(C)ccc42)CN(C)CC3)cc1" , thanks.
## Output 93

## Input % inhibition lookup needed for "Cc1ccc2c(c1)c1c(n2CCc2ccccn2)CCCN(C)C1" , thanks.
## Output 80

## Input % inhibition lookup needed for Cc1ccc2c(c1)[C@@H]1CN(C)CCC[C@@H]1N2CCc1cccnc1 (relative stereo) [1.6.1(1)·3HCl] , thanks.
## Output 80

## Input % inhibition lookup needed for Cc1ccc2c(c1)c1c(n2CCc2ccccn2)CCN(C)C1 [1.1.2(2-3)·2HCl] , thanks.
## Output 88

## Input % inhibition lookup needed for Cc1ccc2c(c1)c1c(n2CCc2ccccc2)CCN(C)C1 [1.1.2(1-2)·HCl] , thanks.
## Output 93

## Input % inhibition lookup needed for Cc1ccc2c(c1)[C@H]1CN(C)CCC[C@@H]1N2CCc1ccc(C)nc1 (relative stereo) , thanks.
## Output 83

---

Molecular target: recombinant human 5-HT2C receptor (Homo sapiens, UniProt P28335)
Construct: expressed in transfected cells; host or cells: CHO-K1
Sequence (P28335 33-458): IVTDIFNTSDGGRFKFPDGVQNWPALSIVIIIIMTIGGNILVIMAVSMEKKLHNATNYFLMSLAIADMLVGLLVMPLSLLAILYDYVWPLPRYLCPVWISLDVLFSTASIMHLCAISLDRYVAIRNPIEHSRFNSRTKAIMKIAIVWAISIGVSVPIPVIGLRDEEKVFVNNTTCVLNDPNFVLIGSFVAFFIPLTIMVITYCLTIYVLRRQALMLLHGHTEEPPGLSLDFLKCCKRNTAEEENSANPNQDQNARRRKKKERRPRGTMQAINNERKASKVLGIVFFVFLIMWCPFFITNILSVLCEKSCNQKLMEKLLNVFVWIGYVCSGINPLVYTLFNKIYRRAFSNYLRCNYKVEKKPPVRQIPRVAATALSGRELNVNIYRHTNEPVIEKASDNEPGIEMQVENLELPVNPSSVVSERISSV
Experiment: Radioligand binding to serotonin receptor 5-HT2C ([3H] Mesulergine, CHO-K1 membranes)
Conditions: read-out: 5-HT2C % inhibition
Structures can show the parent of a compound that is named as a salt.
readout_type: inhibition at 1 µM

## Input inhibition at 1 µM lookup needed for Cc1ccc(CCn2c3c(c4cc(F)ccc42)CN(C)CCC3)cn1 [1.2.2(4-2)·2HCl] , thanks.
## Output 78%

## Input inhibition at 1 µM lookup needed for Cc1ccc(S(=O)(=O)n2c3c(c4cc(C)ccc42)CN(C)CCC3)cc1 [1.8.1(3)·HCl] , thanks.
## Output 90%

## Input inhibition at 1 µM lookup needed for Cc1ccc2c(c1)c1c(n2CCc2ccccn2)CCN(C)C1 [1.1.2(2-3)·2HCl] , thanks.
## Output 96%

## Input inhibition at 1 µM lookup needed for Cc1ccc2c(c1)[C@@H]1CN(C)CCC[C@@H]1N2CCc1cccnc1 (relative stereo) [1.6.1(1)·3HCl] , thanks.
## Output 95%

## Input inhibition at 1 µM lookup needed for Cc1ccc2c(c1)c1c(n2CCc2cccnc2)CCCN(C)C1 [1.2.2(3-2)·2HCl] , thanks.
## Output 90%

---

Molecular target: human D4.2 receptor (Homo sapiens, UniProt P21917, DEL265-296)
Construct: expressed in transfected cells; host or cells: CHO-K1
Sequence (P21917 with tags, fused parts or gaps DEL265-296): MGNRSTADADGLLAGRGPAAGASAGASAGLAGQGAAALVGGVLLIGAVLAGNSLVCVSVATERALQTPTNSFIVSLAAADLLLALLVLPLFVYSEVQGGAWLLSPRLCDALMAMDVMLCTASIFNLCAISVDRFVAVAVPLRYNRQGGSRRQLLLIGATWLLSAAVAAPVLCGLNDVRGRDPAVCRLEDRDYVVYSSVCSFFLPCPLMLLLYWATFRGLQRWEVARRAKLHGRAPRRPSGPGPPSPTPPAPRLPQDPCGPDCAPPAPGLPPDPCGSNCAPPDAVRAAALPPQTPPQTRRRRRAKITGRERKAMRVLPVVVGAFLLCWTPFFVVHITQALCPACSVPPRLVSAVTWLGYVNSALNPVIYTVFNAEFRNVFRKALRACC
Test: Radioligand binding to dopamine receptor D4.2 ([3H] Spiperone, CHO-K1 membranes)
Conditions: read-out: Dopamine receptors, % inhibition D4.2
readout_type: inhibition at 10 µM
Answer with the number, then the unit.

## Input inhibition at 10 µM lookup needed for Cc1ccc2c(c1)c1c(n2CCc2ccccc2)CCN(C)C1 [1.1.2(1-2) ·2HCl] , thanks.
## Output 103%

## Input inhibition at 10 µM lookup needed for Cc1ccc2c(c1)[C@H]1CN(C)CCC[C@@H]1N2CCc1ccc(C)nc1 (relative stereo) , thanks.
## Output 6%

## Input inhibition at 10 µM lookup needed for Cc1ccc2c(c1)[C@@H]1CN(C)CCC[C@@H]1N2CCc1cccnc1 (relative stereo) [1.6.1(1)·3HCl] , thanks.
## Output -6%

## Input inhibition at 10 µM lookup needed for Cc1ccc2c(c1)[C@@H]1CN(C)CCC[C@@H]1N2CCc1ccc(C)nc1 (relative stereo) [1.6.1(2)·3HCl] , thanks.
## Output -11%

---

Biological target: recombinant human 5-HT1A (Homo sapiens, UniProt P08908)
Construct: expressed in transfected cells; host or cells: CHO
Sequence (P08908 whole entry): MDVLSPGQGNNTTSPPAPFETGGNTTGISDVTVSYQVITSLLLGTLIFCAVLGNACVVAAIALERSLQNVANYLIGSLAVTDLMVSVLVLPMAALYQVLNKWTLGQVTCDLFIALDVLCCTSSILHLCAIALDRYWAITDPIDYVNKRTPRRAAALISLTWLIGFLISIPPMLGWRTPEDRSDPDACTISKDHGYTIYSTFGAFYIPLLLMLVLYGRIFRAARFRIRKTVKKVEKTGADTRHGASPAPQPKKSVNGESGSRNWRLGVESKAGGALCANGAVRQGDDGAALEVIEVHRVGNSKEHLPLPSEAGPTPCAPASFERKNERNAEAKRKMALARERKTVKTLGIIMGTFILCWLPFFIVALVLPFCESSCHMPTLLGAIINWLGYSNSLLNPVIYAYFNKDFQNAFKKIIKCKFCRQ
Assay: Radioligand binding to serotonin receptor 5-HT1A ([3H] 8-OH-DPAT, CHO membranes)
Conditions: read-out: 5-HT1A % inhibition
Counter-ions that a name gives are not always drawn.
Hi there, I'd appreciate the recorded inhibition at 10 µM for every entry that follows.
Just the number please, in %, no unit attached.

## Input inhibition at 10 µM lookup needed for Cc1ccc2c(c1)c1c(n2CCc2ccccc2)CCN(C)C1 [1.1.2(1-2)·HCl] , thanks.
## Output 84

## Input inhibition at 10 µM lookup needed for Cc1ccc2c(c1)c1c(n2CCc2ccccc2)CCCN(C)C1 [1.2.2(1-2)·HCl] , thanks.
## Output 20

## Input inhibition at 10 µM lookup needed for Cc1ccc2c(c1)[C@@H]1CN(C)CCC[C@@H]1N2CCc1ccc(C)nc1 (relative stereo) [1.6.1(2)·3HCl] , thanks.
## Output -9

## Input inhibition at 10 µM lookup needed for Cc1ccc2c(c1)c1c(n2CCc2ccc(C(F)(F)F)cc2)CCN(C)C1 [1.1.2(1-18)·HCl] , thanks.
## Output 53

---

Biological target: recombinant human 5-HT6 receptor (Homo sapiens, UniProt P50406)
Construct: expressed in transfected cells; host or cells: HeLa
Sequence (P50406 whole entry): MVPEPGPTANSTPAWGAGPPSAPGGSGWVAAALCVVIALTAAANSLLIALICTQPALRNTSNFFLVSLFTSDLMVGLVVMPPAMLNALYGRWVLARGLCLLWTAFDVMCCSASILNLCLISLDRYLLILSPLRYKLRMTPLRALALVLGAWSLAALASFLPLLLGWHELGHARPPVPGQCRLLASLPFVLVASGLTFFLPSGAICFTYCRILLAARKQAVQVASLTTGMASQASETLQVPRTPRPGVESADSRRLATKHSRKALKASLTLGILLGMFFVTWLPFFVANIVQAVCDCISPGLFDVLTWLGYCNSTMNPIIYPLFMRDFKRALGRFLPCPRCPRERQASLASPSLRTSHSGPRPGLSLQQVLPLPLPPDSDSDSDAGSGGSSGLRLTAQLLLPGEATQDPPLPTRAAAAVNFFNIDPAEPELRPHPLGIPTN
Test: Radioligand binding to serotonin receptor 5-HT6 ([3H] Lysergic acid diethylamide, HeLa membranes)
Details: read-out: 5-HT6 % inhibition
Structures can show the parent of a compound that is named as a salt.
Outcome: TRUE for inhibition at 10 µM of at least 90%; FALSE for anything lower.

## Input Would you say Cc1ccc2c(c1)c1c(n2CCc2ccc(F)cc2)CCN(C)C1 [1.1.2(1-16)·HCl] shows inhibition at 10 µM at minimum 90%?
## Output TRUE

## Input Would you say Cc1ccc2c(c1)c1c(n2Cc2ccccc2)CCCN(C)C1 [1.10(4)·HCl] shows inhibition at 10 µM at minimum 90%?
## Output FALSE

## Input Would you say Cc1ccc2c(c1)c1c(n2CCCc2ccccc2)CCN(C)C1 [1.3.3(2)·HCl] shows inhibition at 10 µM at minimum 90%?
## Output TRUE

## Input Would you say COc1ccc(CCn2c3c(c4cc(C)ccc42)CN(C)CC3)cc1 [1.1.2(1-14)·HCl] shows inhibition at 10 µM at minimum 90%?
## Output TRUE

## Input Would you say CN1CCc2c(c3cc(F)ccc3n2CCCc2ccccc2)C1 [1.3.3(8)·HCl] shows inhibition at 10 µM at minimum 90%?
## Output TRUE

## Input Would you say Cc1ccc2c(c1)c1c(n2CCc2ccc(C(F)(F)F)cc2)CCN(C)C1 [1.1.2(1-18)·HCl] shows inhibition at 10 µM at minimum 90%?
## Output TRUE

## Input Would you say CN1CCc2c(c3ccccc3n2Cc2ccccc2)C1.Cl [1.9(1)·HCl] shows inhibition at 10 µM at minimum 90%?
## Output FALSE

## Input Would you say Cc1ccc2c(c1)[C@@H]1CN(C)CCC[C@@H]1N2CCc1ccc(C)nc1 (relative stereo) [1.6.1(2)·3HCl] shows inhibition at 10 µM at minimum 90%?
## Output FALSE

---

Biological target: recombinant human 5-HT1A (Homo sapiens, UniProt P08908)
Construct: expressed in transfected cells; host or cells: CHO
Test: Radioligand binding to serotonin receptor 5-HT1A ([3H] 8-OH-DPAT, CHO membranes)
Details: read-out: 5-HT1A % inhibition
Counter-ions that a name gives are not always drawn.
Outcome: yes (1) for inhibition at 10 µM of at least 20%; no (0) for anything lower.

## Input Would you say Cc1ccc2c(c1)c1c(n2CCc2ccc(F)cc2)CCN(C)C1 [1.1.2(1-16)·HCl] shows inhibition at 10 µM at minimum 20%?
## Output yes (1)

## Input Would you say Cc1ccc2c(c1)c1c(n2CCc2ccncc2)CCN(C)C1 [1.1.2(5-2)·2HCl] shows inhibition at 10 µM at minimum 20%?
## Output no (0)

## Input Would you say COc1ccc(CCn2c3c(c4cc(C)ccc42)CN(C)CC3)cc1 [1.1.2(1-14)·HCl] shows inhibition at 10 µM at minimum 20%?
## Output yes (1)

## Input Would you say CN1CCc2c(c3cc(F)ccc3n2CCCc2ccccc2)C1 [1.3.3(8)·HCl] shows inhibition at 10 µM at minimum 20%?
## Output no (0)

## Input Would you say Cc1ccc2c(c1)c1c(n2Cc2ccccc2)CCCN(C)C1 [1.10(4)·HCl] shows inhibition at 10 µM at minimum 20%?
## Output no (0)
